Every entry's value here was drawn from patent US10662445B2.

# procedure-summary: Organic-solvent extraction of microbial inhibitors from an agro-waste hydrolysate mimic
# Type: physicochemical
# condition-parameters: homogenizer rotational speed 300 rpm; solvent bis-(2-ethylhexyl) sebacate
recorded-endpoint: Inhibitor extraction, phase separation by separating funnel (%)
Quick note: give the figure in %, leave out the unit.

COc1cc(C(=O)O)ccc1O [Vanillic acid, vanillic acid] : 93
O=Cc1ccco1 [Furfural, furfural] : 76
COc1cc(/C=C/C(=O)O)ccc1O [Ferulic acid, ferulic acid] : 94
COc1cc(C=O)ccc1O [Vanillin, vanillin] : 97
COc1cc(C=O)cc(OC)c1O [Syringaldehyde, syringaldehyde] : 100

Continue with the compound presented below.
Please give the measured Inhibitor extraction, phase separation by separating funnel for this compound: O=Cc1ccc(CO)o1 [HMF, hydroxymethyl furfural]
80
